- measured.on: D(3) dopamine receptor (Homo sapiens)
- method.summary: qHTS of D3 Dopamine Receptor Antagonist: qHTS; further: on the % scale 0 is the no-effect control and ±100 the full control effect
- condition.summary: D3R cells, DiscoveRx beta-arrestin luminescence, antagonist mode; hits give low values
The whole screen tested about 360,000 compounds, of which about 9,100 (2.5%) were called active. Roughly 4% stayed inconclusive and do not appear here. The entries come from a sample that favours actives as a whole.
Answer each item with its documented max response, negative = inhibition.
Kindly provide the numeric value in % only, without the unit symbol.

Problem: Give the measured max response, negative = inhibition of O=C(NCc1ccc(F)cc1)c1cc(C2CCCCN2C(=O)c2cccs2)on1 (stereo unspecified) .
Solution: 12.8

Problem: Give the measured max response, negative = inhibition of C[C@@H]1CN([C@@H](C)CO)C(=O)CCCn2nncc2CO[C@H]1CN(C)C(=O)Nc1ccc(C(F)(F)F)cc1 .
Solution: -16.1

Problem: Give the measured max response, negative = inhibition of COc1ccc(-c2cnc3c(c2)C(=O)N([C@H](C)CO)C[C@@H](C)[C@H](CN(C)Cc2ccccc2)O3)cc1 .
Solution: 14.3

Problem: Give the measured max response, negative = inhibition of Cc1cc(C)c(OCCN2CC(C)OC(C)C2)c(Br)c1 (stereo unspecified) .
Solution: -21.2

Problem: Give the measured max response, negative = inhibition of Cc1ccc(C(NC(=O)C2CCN(CCOc3ccc(Cl)cc3Cl)CC2)c2ccccn2)cc1 (stereo unspecified) .
Solution: -3.28

Problem: Give the measured max response, negative = inhibition of Cc1cccc(C)c1NC(=O)CN1CCN(c2ccc(F)cc2)CC1 .
Solution: -14.3

Problem: Give the measured max response, negative = inhibition of CCN(CC)C(=O)C(C)N1c2cccc3cccc(c23)S1(=O)=O (stereo unspecified) .
Solution: -22.2

Problem: Give the measured max response, negative = inhibition of CCNC(=O)C1(C)CCCN1C(=O)c1ccc(N(C)C)cc1 (stereo unspecified) .
Solution: 6.44

Problem: Give the measured max response, negative = inhibition of Cc1cc(O)ccc1-c1cc(C(=O)NCc2cc(C(F)(F)F)cc(C(F)(F)F)c2)[nH]n1 .
Solution: -17.9

Problem: Give the measured max response, negative = inhibition of COc1ccccc1CN(C)c1nnnn1-c1ccccc1 .
Solution: 6.89

Problem: Give the measured max response, negative = inhibition of O=[N+]([O-])c1ccccc1OCCCCN1CCCCC1 .
Solution: -89.3

Problem: Give the measured max response, negative = inhibition of Fc1ccccc1CCNc1nnnn1-c1ccccc1 .
Solution: -77.8

Problem: Give the measured max response, negative = inhibition of COC(=O)[C@@]12C[C@@H](CC(=O)N3CCC(c4ccccc4)CC3)C(=O)N(Cc3ccccc3)C1=CCC(C)(C)C2 .
Solution: 15.3

Problem: Give the measured max response, negative = inhibition of CC(C)C[C@@H]1COc2cc(N3CCC[C@@H]3CO)ccc2S(=O)(=O)N1 .
Solution: 18.9

Problem: Give the measured max response, negative = inhibition of C[C@@H]1CN([C@@H](C)CO)C(=O)CCCn2nncc2CO[C@@H]1CN(C)S(=O)(=O)c1ccc(-c2ccccc2)cc1 .
Solution: -4.97

Problem: Give the measured max response, negative = inhibition of Cc1ccc(CN2CCN(c3ncccn3)CC2)c(C)c1 .
Solution: -14.2

Problem: Give the measured max response, negative = inhibition of c1ccc(-n2nnnc2NC2CCCCCC2)cc1 .
Solution: -9.29

Problem: Give the measured max response, negative = inhibition of C=CCN(CC=C)CCOc1ccccc1[N+](=O)[O-] .
Solution: -52.4

Problem: Give the measured max response, negative = inhibition of O=C(NCc1ccc(F)cc1F)[C@@H]1CCCN1C(=O)[C@@H]1CCCN1C(=O)c1cccc(Cl)c1 .
Solution: -16.8

Problem: Give the measured max response, negative = inhibition of Oc1c(CN2CCN(c3ccc(F)cc3)CC2)cc(Cl)c2cccnc12 .
Solution: -59.7

Problem: Give the measured max response, negative = inhibition of CC1CN(CCOc2ccccc2[N+](=O)[O-])CC(C)O1 (stereo unspecified) .
Solution: -93.5
